Origin of values: ChEMBL document CHEMBL5661979

study.target: Serine/threonine-protein kinase Nek7 (Homo sapiens)
Sequence (Q8TDX7 whole entry): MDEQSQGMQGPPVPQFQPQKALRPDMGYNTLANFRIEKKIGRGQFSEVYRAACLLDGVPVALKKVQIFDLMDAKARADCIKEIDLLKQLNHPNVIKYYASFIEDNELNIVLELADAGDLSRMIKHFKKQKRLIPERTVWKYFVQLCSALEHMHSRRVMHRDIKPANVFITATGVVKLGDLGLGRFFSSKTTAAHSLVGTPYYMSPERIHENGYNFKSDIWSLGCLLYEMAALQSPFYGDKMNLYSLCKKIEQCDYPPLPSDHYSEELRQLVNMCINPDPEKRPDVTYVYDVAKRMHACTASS
method.description: Inhibition of NEK7 in human HeLa cells lysate pre incubated for 15 mins followed by ATP acyl phosphate probe addition and measured after 10 mins by LC-MS/MS analysis
Type: subcellular
pIC50: −log10 of the molar value.
measured.metric: pIC50

Specify measured pIC50 for CCOc1cc(N2CCC(O)CC2)ccc1Nc1ncc2c(n1)N(C)c1ccccc1C(=O)N2C .
< 4.30

* * *

study.target: Protein kinase C theta type (Homo sapiens)
Sequence (Q04759 whole entry): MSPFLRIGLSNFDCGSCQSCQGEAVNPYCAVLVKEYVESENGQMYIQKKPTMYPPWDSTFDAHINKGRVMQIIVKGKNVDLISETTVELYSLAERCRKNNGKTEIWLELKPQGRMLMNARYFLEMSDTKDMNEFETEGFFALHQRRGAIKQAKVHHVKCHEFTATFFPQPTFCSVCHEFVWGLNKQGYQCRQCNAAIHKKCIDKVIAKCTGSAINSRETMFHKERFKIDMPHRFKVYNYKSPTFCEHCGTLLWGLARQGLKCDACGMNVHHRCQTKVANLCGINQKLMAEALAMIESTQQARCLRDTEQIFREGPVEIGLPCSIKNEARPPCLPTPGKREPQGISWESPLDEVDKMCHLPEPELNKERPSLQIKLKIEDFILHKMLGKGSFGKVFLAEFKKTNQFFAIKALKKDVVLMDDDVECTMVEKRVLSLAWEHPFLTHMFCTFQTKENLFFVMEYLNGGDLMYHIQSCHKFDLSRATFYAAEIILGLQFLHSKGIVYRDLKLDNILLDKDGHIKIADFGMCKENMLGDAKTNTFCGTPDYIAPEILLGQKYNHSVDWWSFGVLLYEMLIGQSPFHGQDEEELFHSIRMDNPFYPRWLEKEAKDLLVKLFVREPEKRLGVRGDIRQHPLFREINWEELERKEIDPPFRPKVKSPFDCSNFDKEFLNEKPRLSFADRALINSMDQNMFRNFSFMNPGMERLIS
method.description: Inhibition of PKCtheta in human HeLa cells lysate pre incubated for 15 mins followed by ATP acyl phosphate probe addition and measured after 10 mins by LC-MS/MS analysis
pIC50: −log10 of the molar value.
measured.metric: pIC50

Specify measured pIC50 for CCOc1cc(N2CCC(O)CC2)ccc1Nc1ncc2c(n1)N(C)c1ccccc1C(=O)N2C .
< 4.30

* * *

method.description: Plasma concentration in Sprague-Dawley rat at 2 mg/kg, po measured after 8 hrs by LC-MS/MS analysis
Type: ADME, organism-based
measured.metric: concentration at 8 h (nM)
Give just the numeric value; nM need not be written.

Specify measured concentration at 8 h for CCOc1cc(N2CCC(O)CC2)ccc1Nc1ncc2c(n1)N(C)c1ccccc1C(=O)N2C .
34

* * *

study.target: Phosphatidylinositol 5-phosphate 4-kinase type-2 gamma (Homo sapiens, UniProt Q8TBX8)
Sequence (Q8TBX8 whole entry): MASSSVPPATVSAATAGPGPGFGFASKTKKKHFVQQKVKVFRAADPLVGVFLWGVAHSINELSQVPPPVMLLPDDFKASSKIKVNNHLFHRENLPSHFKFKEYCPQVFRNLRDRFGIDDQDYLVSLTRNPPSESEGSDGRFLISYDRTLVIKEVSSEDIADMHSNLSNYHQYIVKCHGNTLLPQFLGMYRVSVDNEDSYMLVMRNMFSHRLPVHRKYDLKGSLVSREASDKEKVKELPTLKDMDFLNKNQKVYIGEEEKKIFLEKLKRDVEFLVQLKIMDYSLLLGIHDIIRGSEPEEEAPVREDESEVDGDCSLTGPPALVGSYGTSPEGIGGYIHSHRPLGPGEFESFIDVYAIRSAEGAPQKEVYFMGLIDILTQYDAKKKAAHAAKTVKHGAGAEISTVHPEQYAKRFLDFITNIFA
method.description: Inhibition of PIP5K2C in human HeLa cells lysate pre incubated for 15 mins followed by ATP acyl phosphate probe addition and measured after 10 mins by LC-MS/MS analysis
pIC50: −log10 of the molar value.
measured.metric: pIC50

Specify measured pIC50 for CCOc1cc(N2CCC(O)CC2)ccc1Nc1ncc2c(n1)N(C)c1ccccc1C(=O)N2C .
< 4.30

* * *

study.target: Calcium/calmodulin-dependent protein kinase type II subunit gamma (Homo sapiens)
Sequence (Q13555 whole entry): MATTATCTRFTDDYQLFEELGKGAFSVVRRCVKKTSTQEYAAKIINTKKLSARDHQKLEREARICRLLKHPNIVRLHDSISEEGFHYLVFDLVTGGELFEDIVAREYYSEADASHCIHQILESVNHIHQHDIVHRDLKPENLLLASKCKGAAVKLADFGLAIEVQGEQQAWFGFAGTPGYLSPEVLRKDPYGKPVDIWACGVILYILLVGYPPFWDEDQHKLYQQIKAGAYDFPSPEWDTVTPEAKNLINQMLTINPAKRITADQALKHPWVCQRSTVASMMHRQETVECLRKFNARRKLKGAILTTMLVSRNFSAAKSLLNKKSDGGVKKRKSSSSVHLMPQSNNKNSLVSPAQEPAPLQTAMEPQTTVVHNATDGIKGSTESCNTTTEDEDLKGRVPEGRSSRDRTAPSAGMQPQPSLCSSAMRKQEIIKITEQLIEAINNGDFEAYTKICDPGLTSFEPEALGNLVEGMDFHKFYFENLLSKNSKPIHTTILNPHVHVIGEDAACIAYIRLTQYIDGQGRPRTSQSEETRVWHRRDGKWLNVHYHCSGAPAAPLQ
method.description: Inhibition of CAMK2g in human HeLa cells lysate pre incubated for 15 mins followed by ATP acyl phosphate probe addition and measured after 10 mins by LC-MS/MS analysis
Assay type: subcellular
pIC50: −log10 of the molar value.
measured.metric: pIC50

Specify measured pIC50 for CCOc1cc(N2CCC(O)CC2)ccc1Nc1ncc2c(n1)N(C)c1ccccc1C(=O)N2C .
< 4.30

* * *

study.target: Microtubule-associated serine/threonine-protein kinase 3 (Homo sapiens, UniProt O60307)
Sequence (O60307 whole entry): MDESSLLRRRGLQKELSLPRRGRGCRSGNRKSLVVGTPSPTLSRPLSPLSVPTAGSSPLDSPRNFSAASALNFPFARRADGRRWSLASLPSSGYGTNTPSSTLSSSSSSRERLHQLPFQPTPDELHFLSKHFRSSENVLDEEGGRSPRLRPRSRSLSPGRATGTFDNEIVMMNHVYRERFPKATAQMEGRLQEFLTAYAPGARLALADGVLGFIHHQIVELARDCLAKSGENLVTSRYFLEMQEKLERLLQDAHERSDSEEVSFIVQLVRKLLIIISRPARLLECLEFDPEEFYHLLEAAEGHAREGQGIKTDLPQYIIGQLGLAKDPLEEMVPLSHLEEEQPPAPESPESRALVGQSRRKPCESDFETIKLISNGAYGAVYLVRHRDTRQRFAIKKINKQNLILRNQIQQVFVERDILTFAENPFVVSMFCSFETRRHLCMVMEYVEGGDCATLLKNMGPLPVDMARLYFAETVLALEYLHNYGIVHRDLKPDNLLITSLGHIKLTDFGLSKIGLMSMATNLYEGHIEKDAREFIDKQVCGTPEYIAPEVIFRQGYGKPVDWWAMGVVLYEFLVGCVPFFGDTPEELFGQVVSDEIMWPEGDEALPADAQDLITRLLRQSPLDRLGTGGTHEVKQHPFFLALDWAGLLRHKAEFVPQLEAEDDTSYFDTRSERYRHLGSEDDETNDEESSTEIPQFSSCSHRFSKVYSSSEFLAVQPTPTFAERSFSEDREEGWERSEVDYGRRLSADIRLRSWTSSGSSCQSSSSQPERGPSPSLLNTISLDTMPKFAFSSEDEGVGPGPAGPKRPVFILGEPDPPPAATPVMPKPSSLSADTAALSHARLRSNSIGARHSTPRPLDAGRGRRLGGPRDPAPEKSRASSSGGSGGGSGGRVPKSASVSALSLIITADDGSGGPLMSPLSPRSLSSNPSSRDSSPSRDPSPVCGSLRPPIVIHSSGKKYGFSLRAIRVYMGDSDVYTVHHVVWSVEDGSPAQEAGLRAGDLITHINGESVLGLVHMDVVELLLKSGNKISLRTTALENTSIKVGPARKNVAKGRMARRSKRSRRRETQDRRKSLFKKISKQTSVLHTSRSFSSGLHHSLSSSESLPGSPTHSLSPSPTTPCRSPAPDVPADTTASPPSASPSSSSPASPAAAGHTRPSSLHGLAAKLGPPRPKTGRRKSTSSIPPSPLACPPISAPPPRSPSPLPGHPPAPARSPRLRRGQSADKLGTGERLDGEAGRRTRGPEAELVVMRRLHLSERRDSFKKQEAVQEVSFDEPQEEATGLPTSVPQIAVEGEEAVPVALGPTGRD
method.description: Inhibition of MAST3 in human HeLa cells lysate pre incubated for 15 mins followed by ATP acyl phosphate probe addition and measured after 10 mins by LC-MS/MS analysis
measured.metric: IC50

Specify measured IC50 for CCOc1cc(N2CCC(O)CC2)ccc1Nc1ncc2c(n1)N(C)c1ccccc1C(=O)N2C .
> 50 µM

* * *

study.target: Phosphatidylinositol 5-phosphate 4-kinase type-2 beta (Homo sapiens, UniProt P78356)
Sequence (P78356 whole entry): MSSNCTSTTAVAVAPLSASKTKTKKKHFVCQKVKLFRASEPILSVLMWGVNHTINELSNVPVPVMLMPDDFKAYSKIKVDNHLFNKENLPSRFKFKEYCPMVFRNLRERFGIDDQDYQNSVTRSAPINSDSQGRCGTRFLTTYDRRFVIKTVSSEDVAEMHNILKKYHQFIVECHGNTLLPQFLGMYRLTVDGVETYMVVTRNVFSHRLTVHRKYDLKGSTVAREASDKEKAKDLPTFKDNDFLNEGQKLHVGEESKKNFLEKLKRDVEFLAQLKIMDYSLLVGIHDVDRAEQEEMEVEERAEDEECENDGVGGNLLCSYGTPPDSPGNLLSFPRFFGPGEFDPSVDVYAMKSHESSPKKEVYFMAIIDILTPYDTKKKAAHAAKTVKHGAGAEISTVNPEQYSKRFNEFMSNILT
method.description: Inhibition of PIP5K2B in human HeLa cells lysate pre incubated for 15 mins followed by ATP acyl phosphate probe addition and measured after 10 mins by LC-MS/MS analysis
measured.metric: IC50

Specify measured IC50 for CCOc1cc(N2CCC(O)CC2)ccc1Nc1ncc2c(n1)N(C)c1ccccc1C(=O)N2C .
> 50 µM
